System: NCI-H522 lung
Assay: NCI-60 one-dose screen, 48 h
Conditions: 10 µM unless noted
The panel holds about 83,000 compounds, 20% with a hit somewhere; the sample as a whole holds those more often. The source made the active and inactive calls. How the source made its calls: active means growth percent below 10; inactive means the rest.
The reply should name one outcome from active, inactive

Example cases with answers are listed next.
compound | assignedClass
NS(=O)(=O)c1ccc(Nc2nc(SCc3ccccc3)nc3ccccc23)cc1 | inactive
COc1cccc2cc(-c3cc4ccccc4[nH]3)/c(=N\NC(=O)c3ccc(Cl)cc3)oc12 | inactive
Oc1cccc2ccc(-c3nnc(SCc4ccc(O)c5ncccc45)o3)nc12 | inactive
Nc1ncc(-c2ccc3ncnc(N4CCc5cc(F)c(F)cc54)c3c2)cn1 | inactive
Nc1ccccc1NC(=O)c1ccc(NC(=O)C/C=C/c2cccnc2)cc1 | active

Hey, what did the test say about COC(=O)/C=C/c1c(C2(C)NC(=O)c3ccccc3N2)c(=O)oc2ccc(Cl)cc12 (centres undefined) ?
inactive

Hey, what did the test say about Cc1ccc(-c2nn(-c3ccccc3)cc2/C=C/C(=O)c2ccc(NC(=O)CCCCCCC(=O)NO)cc2)cc1 ?
inactive

Hey, what did the test say about CC(=O)C1=C(C)NC(NN)=NC1c1cccc(Cl)c1 (centres undefined) ?
inactive

Hey, what did the test say about C[C@H](CCC(=O)NCc1ccc(C(=O)Nc2ccccc2N)cc1)[C@H]1CC[C@H]2[C@@H]3[C@@H](O)C[C@@H]4C[C@H](O)CC[C@]4(C)[C@H]3CC[C@]12C ?
inactive
